Molecular target: T1, Human TREM2 extracellular domain (ECD), residues 19-131, C-terminally biotinylated, glycosylated (human, UniProt Q9NZC2 19-131, C-terminally biotinylated; glycosylated)
T1 construct: range 19-131; loaded on Superstreptavidin biosensors; also called Human BLI glycosylated
T1 sequence (looked up): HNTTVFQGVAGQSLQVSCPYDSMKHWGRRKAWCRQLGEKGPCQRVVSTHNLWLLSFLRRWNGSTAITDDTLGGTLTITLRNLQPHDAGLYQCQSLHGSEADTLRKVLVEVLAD
Test: BLI steady state, glycosylated human TREM2 ECD on sensor
*1 amine or outer side, *2 acyl side, *3 side chain or, on linkers, in order; H or OH if unused. Bridges are numbered along the chain shown (N, C = ends). Where no end group is shown, it is not given here. The star is where a group is joined. TATA = O=C(CC[*:1])N1CN(C(=O)CC[*:2])CN(C(=O)CC[*:3])C1; Pent4ynoyl = C#CCCC(=O)*
As shown below, each of these binders has a reported Kd value.
observed_property: Kd (nM)

binder="K(Pent4ynoyl)CSEYCFWPFYHC (linker 2-6-13 via TATA) [BCY20042]" observed_property=Kd quantitative_readout=1350
binder="CSEYCFWPXYHC (N-terminal acetyl (Ac); CiSEYCiiFWP[44BPA]YHCiii; Ci, Cii, Ciii on TATA scaffold) [BCY20075]" observed_property=Kd quantitative_readout=1510
binder="CSEYCFWPXYHC (N-terminal acetyl (Ac); CiSEYCiiFWP[4FPhe]YHCiii; Ci, Cii, Ciii on TATA scaffold) [BCY20073]" observed_property=Kd quantitative_readout=2130
binder="CSEYCXWPFYHC (N-terminal acetyl (Ac); CiSEYCii[1Nal]WPFYHCiii; Ci, Cii, Ciii on TATA scaffold) [BCY20054]" observed_property=Kd quantitative_readout=1830
binder="CSEYCFXPFYHC (N-terminal acetyl (Ac); CiSEYCiiF[Trp(Me)]PFYHCiii; Ci, Cii, Ciii on TATA scaffold) [BCY20059]" observed_property=Kd quantitative_readout=1500
binder="Ac-CSEYCFWPFWHC (linker 1-5-12 via TATA) [BCY20077]" observed_property=Kd quantitative_readout=750
binder="CSEYCFWXFYHC (N-terminal acetyl (Ac); CiSEYCiiFW[44DFP]FYHCiii; Ci, Cii, Ciii on TATA scaffold) [BCY20066]" observed_property=Kd quantitative_readout=980
